Where do the numbers come from? From paper PMC7588595.

target: human AspH (His6-AspH315–758) (Homo sapiens); construct: N-Terminally His6-tagged human AspH315–758 (His6-AspH315–758) was produced in Escherichia coli BL21 (DE3) cells; made in house; host or cells: Escherichia coli BL21 (DE3), pET-28a(+) vector; assay: SPE-MS AspH inhibition assay (hFX-CP101-119 substrate hydroxylation); format: biochemical; conditions: AspH-inhibitor screening, 384-well Plate 1
Sequence (Q12797 315-758): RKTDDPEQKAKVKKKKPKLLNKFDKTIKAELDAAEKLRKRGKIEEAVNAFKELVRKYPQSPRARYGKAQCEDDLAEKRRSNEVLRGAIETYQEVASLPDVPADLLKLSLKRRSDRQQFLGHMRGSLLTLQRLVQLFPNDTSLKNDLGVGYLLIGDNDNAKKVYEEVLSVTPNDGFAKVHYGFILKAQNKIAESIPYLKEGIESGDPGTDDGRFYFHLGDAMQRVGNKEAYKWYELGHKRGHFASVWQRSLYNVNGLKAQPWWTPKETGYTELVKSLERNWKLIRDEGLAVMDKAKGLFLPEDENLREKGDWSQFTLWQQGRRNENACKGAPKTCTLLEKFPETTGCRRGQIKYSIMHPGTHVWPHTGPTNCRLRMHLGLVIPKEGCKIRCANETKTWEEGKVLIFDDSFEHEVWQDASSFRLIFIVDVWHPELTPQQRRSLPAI
Measure name: Plate 1 (% inhibition) (%)

Known results for molecules:
Molecule	Plate 1 (% inhibition), %
N.N.[Cl][Pt][Cl] [Cisplatin aq]	26.89
COC(=O)C[C@](O)(CCCC(C)(C)O)C(=O)O[C@@H]1C(OC)=C[C@]23CCCN2CCc2cc4c(cc2[C@H]13)OCO4 [Omacetaxine mepesuccinate]	-1.21
N#Cc1ccc(COC[C@H]2O[C@@H](n3c(NCc4ccc(Cl)c(Cl)c4)nc4c(N)ncnc43)[C@H](O)[C@@H]2O)cc1 [VER 155008]	10.19
Cn1cc(C2=C(c3cn(C4CCN(Cc5ccccn5)CC4)c4ccccc34)C(=O)NC2=O)c2ccccc21 [Enzastaurin]	-3.95
CCN(CCO)CCCOc1ccc2c(Nc3cc(CC(=O)Nc4cccc(F)c4)[nH]n3)ncnc2c1 [AZD1152-HQPA]	1.19

I = CC(=O)c1c(C)c2cnc(Nc3ccc(N4CCNCC4)cn3)nc2n(C2CCCC2)c1=O [PD-0332991]
II = O=C(O)CCCCC(CCSCc1ccccc1)SCc1ccccc1 (stereo not shown) [CPI-613]
Please compare: I and II . Report which one has the smaller Plate 1 (% inhibition) value. Let me know the label of the one you choose.
II
(II: -2.25%, I: 1.12%)
